B1: CPEB3 Ribozyme (parent)
chain: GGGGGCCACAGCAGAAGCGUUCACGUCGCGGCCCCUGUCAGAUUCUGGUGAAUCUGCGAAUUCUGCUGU

# Variants of: B1
# ASSAY_PROTOCOL: self-cleavage, relative activity (ratio to wild type); higher = more cleavage; co-transcriptional
READOUT_LABEL: self-cleavage
The answer should be written as a number, with no unit following it.

Q: Suppose we examine the variant G2C C24U ; what self-cleavage value has been reported?
A: 0.0323

Q: // query self-cleavage value for entry G41C U62A
A: 0.294

Q: Which self-cleavage is reported for this variant? G11U A16G
A: 0.572

Q: I am curious: what self-cleavage value has been reported for C45U U49C ?
A: 0.986

Q: Given the variant G1U A52C , what is its reported self-cleavage?
A: 0.112

Q: Data request, read-out self-cleavage, for C6G A51C
A: 0.154

Q: // query self-cleavage value for entry C7A C63G
A: 0.303

Q: Item under review: C18U U43A . Reported self-cleavage?
A: 0.549

Q: Please look up its self-cleavage: C6A G48U
A: 0.776

Q: Need self-cleavage, item U26A U55A
A: 0.745

Q: What value of self-cleavage has been recorded for this entry: U55G U69C
A: 0.962

Q: Consider the variant shown here: U20A G47C What is its recorded self-cleavage?
A: 0.261

Q: // self-cleavage lookup, key: A16G C24U
A: 0.68

Q: State the recorded self-cleavage for this entry: C54A A59C
A: 0.365

Q: # input variant: C57A G68C ; wanted: its self-cleavage
A: 0.5

Q: Bench note: what self-cleavage did G3C A51U show?
A: 0.115

Q: Requested read-out: self-cleavage. Entry: A16U U55A
A: 0.624

Q: Entry under review: C18A C63A . Reported self-cleavage?
A: 0.119

Q: Quick check: self-cleavage of A51U C63A ?
A: 0.797

Q: // self-cleavage lookup, key: U20A A59U
A: 0.106

Q: Name the reported self-cleavage value associated with the variant G4C A60C
A: 0.188

Q: Given the entry C9A G56C , report its measured self-cleavage.
A: 0.921
